# Tested on: Recombinant human integrin ανβ5 (Homo sapiens, UniProt P06756+P18084)
# Sequence (P06756 31-992 limits assumed): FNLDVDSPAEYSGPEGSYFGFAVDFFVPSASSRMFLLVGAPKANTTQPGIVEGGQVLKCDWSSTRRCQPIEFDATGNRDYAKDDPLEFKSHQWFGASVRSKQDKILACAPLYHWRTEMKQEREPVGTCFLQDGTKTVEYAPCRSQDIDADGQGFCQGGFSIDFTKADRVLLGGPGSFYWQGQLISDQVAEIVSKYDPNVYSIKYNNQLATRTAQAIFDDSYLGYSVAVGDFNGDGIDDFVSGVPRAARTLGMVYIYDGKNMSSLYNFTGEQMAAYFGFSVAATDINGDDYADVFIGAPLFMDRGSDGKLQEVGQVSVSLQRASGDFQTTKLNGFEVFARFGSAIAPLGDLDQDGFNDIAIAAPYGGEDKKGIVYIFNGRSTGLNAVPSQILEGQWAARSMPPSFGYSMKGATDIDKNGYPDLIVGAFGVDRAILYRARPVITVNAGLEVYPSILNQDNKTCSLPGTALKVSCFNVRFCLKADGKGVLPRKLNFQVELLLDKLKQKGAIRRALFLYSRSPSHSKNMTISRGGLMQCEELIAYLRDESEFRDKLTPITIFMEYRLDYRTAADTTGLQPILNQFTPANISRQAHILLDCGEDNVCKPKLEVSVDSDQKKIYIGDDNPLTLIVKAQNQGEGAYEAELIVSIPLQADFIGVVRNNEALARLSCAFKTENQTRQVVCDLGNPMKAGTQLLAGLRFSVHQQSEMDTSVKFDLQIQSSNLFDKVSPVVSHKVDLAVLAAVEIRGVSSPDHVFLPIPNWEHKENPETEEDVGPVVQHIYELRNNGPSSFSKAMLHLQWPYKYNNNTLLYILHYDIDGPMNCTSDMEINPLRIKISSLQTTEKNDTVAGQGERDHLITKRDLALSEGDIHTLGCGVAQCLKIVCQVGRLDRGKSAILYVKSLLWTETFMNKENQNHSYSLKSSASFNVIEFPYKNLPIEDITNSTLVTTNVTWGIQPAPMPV
# Sequence (P18084 24-719 limits assumed): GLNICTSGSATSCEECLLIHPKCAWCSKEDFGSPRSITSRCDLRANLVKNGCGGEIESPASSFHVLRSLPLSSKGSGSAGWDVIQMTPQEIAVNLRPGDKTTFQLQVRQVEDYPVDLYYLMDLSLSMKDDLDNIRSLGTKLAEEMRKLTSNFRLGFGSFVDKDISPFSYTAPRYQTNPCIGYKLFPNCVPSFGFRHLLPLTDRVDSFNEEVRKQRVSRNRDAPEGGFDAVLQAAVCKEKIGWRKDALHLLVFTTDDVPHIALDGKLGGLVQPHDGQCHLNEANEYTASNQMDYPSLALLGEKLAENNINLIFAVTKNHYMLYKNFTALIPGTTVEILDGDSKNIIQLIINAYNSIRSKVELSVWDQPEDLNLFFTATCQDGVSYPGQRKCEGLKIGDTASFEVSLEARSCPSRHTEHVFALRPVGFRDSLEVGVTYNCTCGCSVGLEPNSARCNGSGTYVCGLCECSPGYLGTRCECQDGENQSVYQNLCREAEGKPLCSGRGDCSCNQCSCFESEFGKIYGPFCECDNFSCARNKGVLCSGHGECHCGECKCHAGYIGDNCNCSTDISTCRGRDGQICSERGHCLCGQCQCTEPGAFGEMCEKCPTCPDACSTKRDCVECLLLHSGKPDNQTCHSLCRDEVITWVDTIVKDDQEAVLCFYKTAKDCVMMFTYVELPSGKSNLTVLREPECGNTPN
# Test method notes: Solid Phase Receptor Assay (SPRA) for ανβ5 function
# Assay context: plate-bound human vitronectin; read-out: αvβ5 SPRA IC50
# pIC50 per record follows
In textbook form, pIC50 equals minus log to base ten of the concentration in mol/L.

Study these solved cases before continuing.
Could you share which pIC50 value was measured for Cn1nc(CC(CC(=O)O)c2cc(C(F)(F)F)cc(C(C)(C)C(F)(F)F)c2)cc1OCCc1ccc2c(n1)NCCC2 (centres unmarked) ? 8.54

Cn1nc(CC(CC(=O)O)c2cc(C#N)cc(C(F)(F)F)c2)cc1OCCc1ccc2c(n1)NCCC2 (centres unmarked) , same question. 10.00

Cn1nc(CC(CC(=O)O)c2cc(Br)cc(C3(C(F)F)CC3)c2)cc1OCCc1ccc2c(n1)NCCC2 (centres unmarked) , same question. 8.92

Others:
Could you share which pIC50 value was measured for Cn1nc(CC(CC(=O)O)c2cc(C(F)(F)F)cc(C3(C(F)F)CC3)c2)cc1OCCc1ccc2c(n1)NCCC2 (centres unmarked) ? 8.19

Cn1nc(CC(CC(=O)O)c2ccc(F)c(Br)c2)cc1OCCc1ccc2c(n1)NCCC2 (centres unmarked) , same question. 9.40

Cn1nc(CC(CC(=O)O)c2ccc3c(c2)OCCO3)cc1OCCc1ccc2c(n1)NCCC2 (centres unmarked) , same question. 9.05

Cn1nc(CC(CC(=O)O)c2cc(Br)cc(C(C)(C)C)c2)cc1OCCc1ccc2c(n1)NCCC2 (centres unmarked) , same question. 8.51

COc1ccc(C(CC(=O)O)Cc2cc(OCCc3ccc4c(n3)NCCC4)n(C)n2)cc1F (centres unmarked) , same question. 9.40
